# Test system: Pseudomonas aeruginosa
# method notes: Bactericidal activity against Pseudomonas aeruginosa ATCC 27853 assessed as prevention visible bacterial growth incubated for 18 hrs
# Format: functional
# study conditions: ATCC 27853, 18 h
Item-by-item account of MBC

The examples below pair each entry with its known result.
substance=H-RRIRPRPPRLPRPRPR-OH measure_name=MBC result="> 64 µM"
substance=H-RRIRPRPPRLPRPRWR-OH measure_name=MBC result="32 µM"
substance=H-WRIRPRPPRLPRPRPR-OH measure_name=MBC result="> 64 µM"
substance=H-WRIRRRWPRLPRPRWR-OH measure_name=MBC result="> 64 µM"
substance=H-WRIRRRPPRLPRPRWR-OH measure_name=MBC result="64 µM"

Shift focus to the following entry.
Look up Pseudomonas aeruginosa data: MBC of "H-WRIRPRPPRLPRWRPR-OH" , then report it.
> 64 µM
